Please go through the items and note down their IC50 (M), B-cell proliferation assay, +HSA.
Biological target: T1, human CD40L expressed on CHO cells (human, UniProt P29965 1-261)
T1 sequence: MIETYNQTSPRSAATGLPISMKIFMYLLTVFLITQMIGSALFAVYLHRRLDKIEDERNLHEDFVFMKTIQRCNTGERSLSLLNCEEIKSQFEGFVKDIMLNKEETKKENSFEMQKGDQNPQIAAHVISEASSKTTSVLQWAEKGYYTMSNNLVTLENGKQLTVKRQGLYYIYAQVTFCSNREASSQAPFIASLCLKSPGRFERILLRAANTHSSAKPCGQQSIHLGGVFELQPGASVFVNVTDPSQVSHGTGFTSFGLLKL
Assay: cell-based or functional assay
Give your result in M as a bare value.

Which IC50 (M), B-cell proliferation assay, +HSA reading was recorded for the binder C0100044B07 (VHH, Monovalent Nanobody; tag of the monovalent form not spelled out; also called C01000044B07) VHH: EVQLVESGGGLVQPGGRLRLSCAASGFTLDYYALAWFRQAPGKEREGVSCISSSEGSTDYADYADSVKGRFTISRDTAKNTVYLQMNNLKPEDTAVYYCATDETTFFSGSCTLSAATFGSWGQGTLVTVSS ? 1.14e-09

# iterate: C0100029C10 (VHH, Monovalent Nanobody; tag of the monovalent form not spelled out; also called C01000029C10) VHH: EVQLVESGGGLVQPGGSLRLSCAASGFTLDYYALGWFRQAPGKEREGVSCISSTESSDGSTYYADSVKGRFTISRDSAKNTVYLQMNSLKPEDTAVYYCATDQTLFGVCRGIATPDPGFWGQGTLVTVSS 1.06e-09

# iterate: C0100046B03 (VHH, Monovalent Nanobody; tag of the monovalent form not spelled out; also called C01000046B03) VHH: EVQLVESGGGLVQAGGSLRLSCAASGRTPLNYHMAWFRQAPGKEREFVAAISSLLGSTDYSDSLKDRFTISRDNAKATLYLRMNNLKPEDTAVYYCAARETTHYSTSDRVNEMRHYDYWGQGTLVTVSS 2.38e-09

# iterate: C0100028B02 (VHH, Monovalent Nanobody produced in P. pastoris (pAX205); Detected with anti-FLAG reagents, but the tag of the monovalent form is not spelled out; also called C01000028B02) VHH: EVQLVESGGGLVQPGGSLRLSCAASGFTLEYYAIGWFRQAPGKEREGVSCISSEGSTSYTDSVKGRFTISRDNAKNTVYLQMNSLKPEDTAVYYCATDPDRGFLGSSCDTQSHQYDYWGQGTLVTVSS 2.81e-09
